Listed here: items and their measured pKi.
- targetOfAssay: Carbonic anhydrase 2 (Homo sapiens, UniProt P00918)
- assayText: Inhibition of human recombinant carbonic anhydrase 2 preincubated for 15 mins prior to testing measured for 10 to 100 secs by phenol red-based stopped-flow CO2 hydration assay
pKi: −log10 of the molar value.

Examples with answers:
querysmiles=Oc1ccc(O)c(O)c1 reportedvalue="< 4.00"
querysmiles=Nc1ccc(O)c(Cl)c1 reportedvalue=4.24

Which measured pKi value corresponds to `Oc1c(F)cc(F)cc1F` ?
< 4.00

----------
- assayText: Inhibition of Malassezia globosa recombinant beta-carbonic anhydrase preincubated for 15 mins prior to testing measured for 10 to 100 secs by phenol red-based stopped-flow CO2 hydration assay
reportedProperty: Ki (µM)

molecule="O=C(O)c1ccc(O)cc1 [PARABEN]" unittext=µM reportedvalue=4.9
molecule="O=C(O)c1ccccc1O [SALICYLIC ACID]" unittext=µM reportedvalue=6.6
molecule="CC(=O)Nc1nnc(S(N)(=O)=O)s1 [ACETAZOLAMIDE]" unittext=µM reportedvalue=74
molecule="O=C(O)/C=C/c1ccc(O)cc1 [COUMARIC ACID]" unittext=µM reportedvalue=3.3
molecule="O=C(O)c1ccc(O)c(O)c1 [PROTOCATECHUIC ACID]" unittext=µM reportedvalue=6.5

a: Oc1ccc(O)c(O)c1
b: Oc1c(F)cc(F)cc1F
c: Nc1cccc(O)c1 [3-AMINOPHENOL]
d: O=C(O)/C=C/c1ccc(O)c(O)c1 [CAFFEIC ACID]
Hey, quick one: sort these by Ki, largest value first please. Field: ranking. Enter the labels in the order requested.
b, a, c, d
(b: 36.4 µM, a: 7.4 µM, c: 3.9 µM, d: 0.6 µM)

I: Oc1cc(F)cc(F)c1
II: Oc1cc(F)ccc1F
Task for the reader: decide whether I or II has the larger Ki. # reply format: chosen label
II

Attribution: ChEMBL document CHEMBL4017449
